target: SARS-CoV-2 Spike Protein (S1 Subunit, Fc Tag) (Sino 40591-V02H) (SARS-CoV-2, UniProt P0DTC2 16-685); assay: Luminex, supernatant
I'd be grateful if you could share measured MFI for these entries.
Please state the figure in MFI; there is no need to write the unit.

Could you share which MFI value was measured for mAb10935 (antibody, V domains shown) VH: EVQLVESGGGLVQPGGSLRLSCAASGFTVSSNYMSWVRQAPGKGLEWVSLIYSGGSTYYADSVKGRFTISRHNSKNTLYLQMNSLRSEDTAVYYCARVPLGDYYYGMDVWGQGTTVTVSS VL: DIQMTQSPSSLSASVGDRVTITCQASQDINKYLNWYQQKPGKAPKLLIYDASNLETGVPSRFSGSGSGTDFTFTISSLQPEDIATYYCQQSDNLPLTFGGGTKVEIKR ?
20000

What about this binder? mAb10989 (antibody, V domains shown) VH: QVQLVQSGAEVKKPGASVKVSCKASGYIFTGYYMHWVRQAPGQGLEWMGWINPNSGGANYAQKFQGRVTLTRDTSITTVYMELSRLRFDDTAVYYCARGSRYDWNQNNWFDPWGQGTLVTVSS VL: QSALTQPASVSGSPGQSITISCTGTSSDVGTYNYVSWYQQHPGKAPKLMIFDVSNRPSGVSDRFSGSKSGNTASLTISGLQAEDEADYYCSSFTTSSTVVFGGGTKLTVLG
12300
